test system: HepG2 (hepatocellular carcinoma); assay: MTT antiproliferative assay, HepG2; settings: Homo sapiens, HepG2, read-out: IC50 (µM) HepG2
recorded.metric: IC50 (µM)
API: value field is a number in µM; no unit string.

Identify the measured IC50 of N#Cc1cnc(N)nc1-c1ccccc1 for HepG2 (hepatocellular carcinoma).
8.18

GET /values?readout=IC50&system=HepG2 (hepatocellular carcinoma)&item= NS(=O)(=O)c1cccc(Nc2nccc(-c3ccccn3)n2)c1
28

Return IC50 measured with HepG2 (hepatocellular carcinoma) given this molecule: N#Cc1cnc(N)nc1-c1ccc(F)cc1
67

Look up IC50 with HepG2 (hepatocellular carcinoma) for this molecule: NS(=O)(=O)c1cccc(Nc2nccc(-c3ccc(F)cc3)n2)c1
46.8

Lab note: need IC50 for NS(=O)(=O)c1cccc(Nc2nccc(-c3ccc(OC(F)(F)F)cc3)n2)c1 on HepG2 (hepatocellular carcinoma), anyone have it?
81.3
